Tested on: SR leukemia
Test protocol: NCI-60 one-dose screen, 48 h
Test settings: 10 µM unless noted
The panel holds about 83,000 compounds, 20% with a hit somewhere; the sample as a whole holds those more often. Active and inactive are the calls of the source. How the source made its calls: active means growth percent below 10; inactive means the rest.
Write down the outcome that applies. Available outcomes: true for active, false for inactive

What was the test verdict on C=C(C)[C@@H]1CC[C@]2(C(=O)O)CC[C@]3(C)[C@H](CC[C@@H]4[C@@]5(C)C/C(=C/c6ccccn6)C(=O)C(C)(C)[C@@H]5CC[C@]43C)[C@@H]12 ?
false

Fill in: this test's call for CC(C)NC(=O)c1cc(-c2ccc(NC(=O)Nc3ccc(F)c(C(F)(F)F)c3)cc2)nc2cccnc12 is ___
false

I'd appreciate the recorded outcome for O=C1[C@@H]2Cc3c([nH]c4ccccc34)[C@@H](c3ccc(Cl)cc3)N2C(=O)CN1C1CCN(Cc2c(F)cccc2F)CC1 from this test.
true

Kindly provide the recorded test outcome for the following molecule: CC(C)C(/C=C/c1[nH]ncc1-c1cc(Cl)ccc1O)N1CCOCC1 (stereo not drawn)
false

Short answer needed: outcome of this test for COc1cc(-c2nc(-c3ccccc3)[nH]c2-c2ccnc(NCCCNS(=O)(=O)c3cccc(F)c3)n2)ccc1F ?
false

State the result this test recorded for Cc1ccc(S(=O)(=O)NCCCNc2nccc(-c3[nH]c(-c4ccccc4)nc3-c3ccc(F)c(O)c3)n2)cc1 .
false

# fetch the recorded call for CC1=C(C)C(=O)C(Nc2ccc(C)cc2)=C(Br)C1=O here
false

How did this test come out for O=C(Nc1cc(C(F)(F)F)cc(C(F)(F)F)c1)Nc1ccc2oc(=O)ccc2c1 ?
false
